# System: HCV replicon
# assay.text: HCV replicon assay: HCV RNA by Q-RT-PCR, 4 days exposure
# Type: cell-based, hepatitis C virus (HCV)
# measurement.conditions: Hepatitis C virus, 96 h, read-out: Corrected HCV RNA EC90
The entries below come with measured EC90 values attached.
The figure you give is taken to be in µM; do not add the unit.

> print(dat)
                                   compound  observed.value
1  O=C(O)C[C@H](NC(=O)CP(=O)(O)O)C(=O)O [PALA, N-(Phosphonoacetyl)-L-aspartate]             7.6

Attention now shifts to the item below.
Report EC90 for NC(=O)c1[nH]nc([C@@H]2O[C@H](CO)[C@@H](O)[C@H]2O)c1O [PZF, pyrazofurin] tested on HCV replicon.
3.8

Origin of measurements: patent US20050049220A1
